target: Calmodulin-1 (Homo sapiens) (UniProt P0DP23); experiment: CALM1 binders on microarrays, EGTA buffer, profiling panel, biochemical, small-molecule microarray, Cy5-labelled CALM1 (AID 1111); details: Cy5-CALM1 binding fluorescence, higher = more signal;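 note: labelled calmodulin applied in Tris saline Tween buffer holding calcium plus EGTA and DTT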
recorded-metric: composite z-score
Give your answer as a number; write no unit.

Recorded composite z-score, per entry:
{"columns": ["molecule", "composite z-score"],
 "data": [
  ["COc1ccc(COC(=O)NN=C2C[C@@H](O)[C@@H](O)[C@@H]3[C@@H]4C(=O)N(C5CCCCC5)C(=O)[C@@H]4CC[C@H]23)cc1", 0.979],
  ["COC(=O)[C@@H]1CC[C@H](C)[C@@H](c2ccc(C)cc2)N1C(=O)c1ccc(C=NO[C@H](C)c2cn([C@H](CO)Cc3ccccc3)nn2)cc1", 3.17],
  ["COc1cccc([C@H]2Oc3ccc(OC)cc3C(=NOC[C@@H](O)COCc3ccco3)[C@@H]2O)c1", -2.33],
  ["CC(C)=NOC[C@@H](C)[C@H](OCc1ccccc1)C(C)C", -0.211],
  ["COC(=O)CC=C[C@@H](C)[C@@H](C=NOC[C@@H](O)[C@H]1O[C@@H]2OC(C)(C)O[C@@H]2[C@H]1O)NS(=O)(=O)c1ccc(C)cc1", 0.0636],
  ["CC(CCN1CCCCc2nc(C)c(C)cc21)=NOC[C@@H](C)[C@H](OCc1ccccc1)C(C)C", -1.74]
]}

Input line: Which measured composite z-score value corresponds to COC(=O)[C@@H]1CC[C@@H](C)[C@H](c2ccc(Br)cc2)N1 ?
Output line: -0.227

Input line: Which measured composite z-score value corresponds to CCOC(=O)NN=C1C[C@@H](O)[C@@H](O)[C@@H]2[C@@H]3C(=O)N(c4cccc(Oc5ccccc5)c4)C(=O)[C@@H]3CC[C@H]12 ?
Output line: 0.141

Input line: Which measured composite z-score value corresponds to CCOC(=O)NN=C1C[C@@H](O)[C@@H](O)[C@@H]2[C@@H]3C(=O)N(c4ccc(F)cc4F)C(=O)[C@@H]3CC[C@@H]12 ?
Output line: -0.167

Input line: Which measured composite z-score value corresponds to CC(CCN1CCc2nc(-c3ccccc3)c(-c3ccccc3)cc2C1)=NOC[C@@H](O)COCc1ccco1 ?
Output line: -0.216

###

assay: HepG2 cell viability effects, profiling panel, calcein-AM fluorescence, 48 h, basal (AID 1164); details: higher = more signal; note: test concentration not given here
// z-score lookup, one value per entry
Give your answer as a number; write no unit.

Recorded z-score, per entry:
{"columns": ["molecule", "recorded-metric", "quantitative-result"],
 "data": [
  ["COC(=O)CC=C[C@@H](C)[C@@H](C=NOCC[C@@H]1C=C[C@H](OC(C)=O)[C@@H](COC(C)=O)O1)OC", "z-score", 0.436],
  ["CC(C)=CCCC(C)=CCON=C1C[C@@H](O)[C@@H](O)[C@@H]2[C@@H]3C(=O)N(C(C)(C)C)C(=O)[C@@H]3CC[C@H]12", "z-score", -0.465],
  ["O=C1OCCC=C1C(O)CCc1ccccc1 (stereo not given)", "z-score", -0.354],
  ["C#CCCCON=C1C[C@@H](O)[C@@H](O)[C@@H]2[C@@H]3C(=O)N(CC)C(=O)[C@@H]3CC[C@@H]12", "z-score", 0.075],
  ["CON=CC[C@@H]1C=C[C@H](OC(C)=O)[C@@H](COC(C)=O)O1", "z-score", -0.0589],
  ["C=CC1=C[C@H](O)[C@@H]2O[C@@H]2C12OCCCO2", "z-score", -0.0684],
  ["CCOC(=O)[C@H](Cc1ccccc1)NC(=O)CCC1CC(OC(=O)NCCc2ccc(F)cc2)CC2(CCCC(COC(=O)NCCc3ccc(Cl)cc3)O2)O1 (stereo not given in full)", "z-score", -0.44],
  ["C#CCCCON=C1C[C@@H](O)[C@@H](O)[C@@H]2[C@@H]3C(=O)N(Cc4ccccc4)C(=O)[C@@H]3CC[C@@H]12", "z-score", -0.732]
]}

Kindly consider the entry below.
Input line: Which measured z-score value corresponds to COCCNC(=O)OCC1CCCC2(CC(OC(=O)NCc3ccc4c(c3)OCO4)CC(CCC(=O)N[C@@H](C)C(=O)OC)O2)O1 (stereo not given in full) ?
Output line: -1.29
